Value source: ChEMBL document CHEMBL1201862

As a worked illustration, we turn to AC50 data collected for Cytochrome P450 3A4 (Homo sapiens).

COc1cc(NC(=O)c2cc(Cl)ccc2Cl)ccc1-c1cc2ccccc2oc1=O    1 µM (inconclusive)
CCOc1ccc(N2C(=O)CN=C2Nc2ccccc2Cl)cc1    15.8 µM (inconclusive)
O=C(C=C1SCCS1)/C=C/c1ccco1    15.8 µM (inconclusive)
CCNc1ncc2nc(-c3cc(F)cc(F)c3)c(=O)n(-c3ccccc3)c2n1    10 µM (inconclusive)
C=CCNC(=O)c1csc(-c2ccccc2)n1    28.2 µM (inconclusive)

Using the record for `CCc1cc2c(nc1CC)CCN(CC/C(C)=N/O[C@@H](C)CN1CCCc3nc(C)c(C)cc31)C2` , report its AC50. 3.16 µM (inconclusive)

Now give it for `COc1ccc(-c2cc(C(=O)Nc3nc4c(C)cccc4s3)c3ccccc3n2)cc1OC` too. 11.2 µM (inconclusive)

Okay, and `Cc1ccc(S(=O)(=O)/C=C\C#N)cc1` ? 39.8 µM (inconclusive)

Entry `N#Cc1cccc(NC(=O)N2CCCC3(CCN(C(=O)c4cnccn4)CC3)C2)c1` please 15.8 µM (inconclusive)

Also `c1ccc(C2=NN[C@@H]3c4ccccc4-c4ccccc4N3C2)cc1` ? 3.16 µM (inconclusive)

What do you get for `C[C@@H]1/C=C\CC(=O)OC[C@H](C)C(=O)N[C@@H](Cc2ccccc2)C(=O)OC1` ? 3.16 µM (inconclusive)
